STUDY TARGET: Cathepsin B from bovine spleen (bovine, UniProt P07688 80-332)
TEST DETAILS: cell-based or functional assay
Tag: Satisfied if measured Cathepsin B inhibition test, 2 mM peptide is not below 90, Not satisfied if it is.

binder="Ac-Met-Asp-Arg-OH [Ac-MDR-OH]" label_value=Satisfied
binder="H-Leu-Gln-Lys-OH [H-LQK-OH]" label_value=Satisfied
binder="H-Met-Asp-Lys-OH (also: MGO-modified, site not given here) [MGO-modified H-MDK-OH]" label_value="Not satisfied"
binder="Ac-Leu-Gln-Lys-OH [Ac-LQK-OH]" label_value=Satisfied
binder="H-Ile-Asp-Arg-OH (also: MGO-modified, site not given here) [MGO-modified H-IDR-OH]" label_value="Not satisfied"
